This section lists IC50 readings for Human immunodeficiency virus type 1 reverse transcriptase (Human immunodeficiency virus 1).
Entry rule: numbers only, all in nM.

Value (IC50, Human immunodeficiency virus type 1 reverse transcriptase (Human immunodeficiency virus 1)) for record CCS(=O)(=O)N1CCN(c2ccc(Nc3nccc(Oc4c(C)cc(C#N)cc4C)n3)cc2F)CC1 = 58

Lab note: compound Cc1cc(/C=C/C#N)cc(C)c1Oc1ccnc(Nc2ccc(N3CCN(S(=O)(=O)C(C)C)CC3)cc2)n1 tested on Human immunodeficiency virus type 1 reverse transcriptase (Human immunodeficiency virus 1); recorded IC50 was 130

Param item: Cc1cc(C#N)cc(C)c1Oc1ccnc(Nc2ccc(N3CCN(S(=O)(=O)C(C)C)CC3)c(F)c2)n1 ; param system: Human immunodeficiency virus type 1 reverse transcriptase (Human immunodeficiency virus 1); output IC50: 140

The compound Cc1cc(/C=C/C#N)cc(C)c1Oc1ccnc(Nc2ccc(N3CCN(S(C)(=O)=O)CC3)c(F)c2)n1 on Human immunodeficiency virus type 1 reverse transcriptase (Human immunodeficiency virus 1): IC50 was 40

IC50 for Human immunodeficiency virus type 1 reverse transcriptase (Human immunodeficiency virus 1) with input Cc1cc(/C=C/C#N)cc(C)c1Oc1ccnc(Nc2ccc(CN3CCN(S(C)(=O)=O)CC3)cc2)n1 equals 33

With Human immunodeficiency virus type 1 reverse transcriptase (Human immunodeficiency virus 1) as the test system, Cc1cc(/C=C/C#N)cc(C)c1Oc1ccnc(Nc2ccc(N3CCN(S(=O)(=O)N(C)C)CC3)cc2)n1 showed IC50 of 140

Field IC50 (Human immunodeficiency virus type 1 reverse transcriptase (Human immunodeficiency virus 1)), entry Cc1cc(/C=C/C#N)cc(C)c1Nc1ccnc(Nc2ccc(C#N)cc2)n1 : 430

New cases:
Tested system Human immunodeficiency virus type 1 reverse transcriptase (Human immunodeficiency virus 1); IC50 recorded for Cc1cc(/C=C/C#N)cc(C)c1Oc1ccnc(Nc2ccc(N3CCN(S(=O)(=O)C4CC4)CC3)c(F)c2)n1 was 100
